Data origin: ChEMBL document CHEMBL1155868

biological target: Voltage-gated inwardly rectifying potassium channel KCNH2 (Homo sapiens)
Sequence (Q12809 whole entry): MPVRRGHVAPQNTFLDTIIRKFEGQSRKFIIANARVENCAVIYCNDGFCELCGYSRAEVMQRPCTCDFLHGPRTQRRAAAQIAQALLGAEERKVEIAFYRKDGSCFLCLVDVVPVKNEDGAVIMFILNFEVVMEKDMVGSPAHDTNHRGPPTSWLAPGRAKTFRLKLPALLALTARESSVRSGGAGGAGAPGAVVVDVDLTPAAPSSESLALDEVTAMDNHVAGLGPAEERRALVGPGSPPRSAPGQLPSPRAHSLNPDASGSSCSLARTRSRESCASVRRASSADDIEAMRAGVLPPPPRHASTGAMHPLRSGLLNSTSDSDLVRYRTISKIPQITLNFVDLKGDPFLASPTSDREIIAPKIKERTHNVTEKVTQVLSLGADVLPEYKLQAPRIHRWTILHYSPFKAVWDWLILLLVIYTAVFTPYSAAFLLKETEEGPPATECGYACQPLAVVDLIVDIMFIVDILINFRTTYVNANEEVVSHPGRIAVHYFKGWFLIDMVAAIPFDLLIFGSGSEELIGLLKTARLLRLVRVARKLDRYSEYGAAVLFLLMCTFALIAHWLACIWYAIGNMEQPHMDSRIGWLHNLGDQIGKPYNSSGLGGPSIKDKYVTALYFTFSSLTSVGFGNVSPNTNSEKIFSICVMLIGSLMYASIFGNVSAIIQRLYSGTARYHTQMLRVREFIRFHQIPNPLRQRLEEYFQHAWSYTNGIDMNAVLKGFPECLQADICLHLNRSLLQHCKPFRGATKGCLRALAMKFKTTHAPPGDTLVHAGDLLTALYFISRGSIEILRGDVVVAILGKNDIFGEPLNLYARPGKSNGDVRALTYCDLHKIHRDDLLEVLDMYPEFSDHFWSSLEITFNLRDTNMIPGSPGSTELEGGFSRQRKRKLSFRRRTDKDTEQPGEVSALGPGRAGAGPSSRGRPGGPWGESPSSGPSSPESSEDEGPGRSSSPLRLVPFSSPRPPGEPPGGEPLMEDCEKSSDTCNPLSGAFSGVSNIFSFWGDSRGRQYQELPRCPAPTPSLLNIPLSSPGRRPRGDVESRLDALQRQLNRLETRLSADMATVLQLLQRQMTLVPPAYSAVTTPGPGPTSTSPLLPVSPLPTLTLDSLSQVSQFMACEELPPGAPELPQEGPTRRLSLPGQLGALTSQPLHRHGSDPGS
I'd appreciate it if you could supply IC50 values for the items below.
Write down the numeric answer in µM and omit the unit.

Provide IC50, recorded with Voltage-gated inwardly rectifying potassium channel KCNH2 (Homo sapiens), of CC(C)C(=O)N(Cc1cccc(Cl)c1Cl)[C@H]1CCNC1
24.7

Provide IC50, recorded with Voltage-gated inwardly rectifying potassium channel KCNH2 (Homo sapiens), of CC(C)C(=O)N(Cc1ccc(Cl)cc1Cl)[C@H]1CCNC1
40.2

* * *

biological target: Sodium-dependent serotonin transporter (Homo sapiens, UniProt P31645); assay: Inhibition of [3H]5HT reuptake at human serotonin transporter expressed in HEK293 cells by scintillation counting
Sequence (P31645 whole entry): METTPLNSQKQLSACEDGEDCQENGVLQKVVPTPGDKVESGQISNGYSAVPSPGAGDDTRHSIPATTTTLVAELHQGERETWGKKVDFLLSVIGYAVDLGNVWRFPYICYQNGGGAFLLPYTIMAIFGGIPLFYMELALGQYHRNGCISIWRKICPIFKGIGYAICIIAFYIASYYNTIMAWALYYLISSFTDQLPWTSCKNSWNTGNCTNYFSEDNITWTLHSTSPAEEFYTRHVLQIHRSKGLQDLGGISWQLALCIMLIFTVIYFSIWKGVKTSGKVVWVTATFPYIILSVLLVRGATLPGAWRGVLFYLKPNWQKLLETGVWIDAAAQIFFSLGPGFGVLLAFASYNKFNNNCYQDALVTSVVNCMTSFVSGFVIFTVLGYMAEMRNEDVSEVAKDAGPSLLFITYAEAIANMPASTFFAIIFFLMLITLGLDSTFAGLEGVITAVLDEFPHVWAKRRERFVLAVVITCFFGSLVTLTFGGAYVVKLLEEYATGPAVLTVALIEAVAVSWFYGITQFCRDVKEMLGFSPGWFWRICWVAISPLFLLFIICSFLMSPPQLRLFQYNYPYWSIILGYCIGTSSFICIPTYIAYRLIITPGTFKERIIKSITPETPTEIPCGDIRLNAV
IC50 strictly less than 40 nM = condition met. Otherwise condition not met.

Quick check: IC50 of CC(C)C(=O)N(Cc1ccc(C(F)(F)F)cc1F)[C@H]1CCNC1 under 40 nM?
condition met

Quick check: IC50 of CC(C)CC(=O)N(Cc1cccc(Cl)c1Cl)[C@H]1CCNC1 under 40 nM?
condition met

Quick check: IC50 of CCCC(=O)N(Cc1ccc(Cl)cc1Cl)[C@H]1CCNC1 under 40 nM?
condition not met

Quick check: IC50 of O=C(C1CC1)N(Cc1ccc(Cl)cc1Cl)[C@H]1CCNC1 under 40 nM?
condition met

Quick check: IC50 of CC(C)C(=O)N(Cc1ccccc1-c1ccccc1)[C@H]1CCNC1 under 40 nM?
condition not met

Quick check: IC50 of CCC(=O)N(Cc1ccc(Cl)cc1Cl)[C@H]1CCNC1 under 40 nM?
condition met

Quick check: IC50 of CC(C)C(=O)N(Cc1cccc(Cl)c1Cl)[C@@H]1CCNC1 under 40 nM?
condition met

Quick check: IC50 of CC(C)CC(=O)N(Cc1ccc(Cl)cc1Cl)[C@H]1CCNC1 under 40 nM?
condition not met

Quick check: IC50 of CC(C)C(=O)N(Cc1ccc(F)cc1F)[C@H]1CCNC1 under 40 nM?
condition not met

Quick check: IC50 of O=C(C1CCOCC1)N(Cc1cccc(Cl)c1Cl)[C@H]1CCNC1 under 40 nM?
condition not met

Quick check: IC50 of CC(C)C(=O)N(Cc1ccc(F)cc1Cl)[C@H]1CCNC1 under 40 nM?
condition not met

Quick check: IC50 of CC(C)C(=O)N(Cc1ccc(Cl)cc1Cl)[C@H]1CCNC1 under 40 nM?
condition met

Quick check: IC50 of CCCCC(=O)N(Cc1ccc(Cl)cc1Cl)[C@H]1CCNC1 under 40 nM?
condition met

Quick check: IC50 of CC(C)(C)CC(=O)N(Cc1ccc(Cl)cc1Cl)[C@H]1CCNC1 under 40 nM?
condition met

Quick check: IC50 of CC(C)(C)C(=O)N(Cc1cccc(Cl)c1Cl)[C@H]1CCNC1 under 40 nM?
condition met

Quick check: IC50 of CC(C)C(=O)N(Cc1ccccc1Cl)[C@H]1CCNC1 under 40 nM?
condition not met

Quick check: IC50 of CC(C)C(=O)N(Cc1ccc(Cl)c(Cl)c1Cl)[C@H]1CCNC1 under 40 nM?
condition met

Quick check: IC50 of CC(C)C(=O)N(Cc1cc(Cl)cc(Cl)c1Cl)[C@H]1CCNC1 under 40 nM?
condition not met

Quick check: IC50 of O=C(c1ccccc1)N(Cc1ccc(Cl)cc1Cl)[C@H]1CCNC1 under 40 nM?
condition not met
